target-or-test-system: Protein RecA (Mycobacterium tuberculosis)
Sequence (P9WHJ3 whole entry): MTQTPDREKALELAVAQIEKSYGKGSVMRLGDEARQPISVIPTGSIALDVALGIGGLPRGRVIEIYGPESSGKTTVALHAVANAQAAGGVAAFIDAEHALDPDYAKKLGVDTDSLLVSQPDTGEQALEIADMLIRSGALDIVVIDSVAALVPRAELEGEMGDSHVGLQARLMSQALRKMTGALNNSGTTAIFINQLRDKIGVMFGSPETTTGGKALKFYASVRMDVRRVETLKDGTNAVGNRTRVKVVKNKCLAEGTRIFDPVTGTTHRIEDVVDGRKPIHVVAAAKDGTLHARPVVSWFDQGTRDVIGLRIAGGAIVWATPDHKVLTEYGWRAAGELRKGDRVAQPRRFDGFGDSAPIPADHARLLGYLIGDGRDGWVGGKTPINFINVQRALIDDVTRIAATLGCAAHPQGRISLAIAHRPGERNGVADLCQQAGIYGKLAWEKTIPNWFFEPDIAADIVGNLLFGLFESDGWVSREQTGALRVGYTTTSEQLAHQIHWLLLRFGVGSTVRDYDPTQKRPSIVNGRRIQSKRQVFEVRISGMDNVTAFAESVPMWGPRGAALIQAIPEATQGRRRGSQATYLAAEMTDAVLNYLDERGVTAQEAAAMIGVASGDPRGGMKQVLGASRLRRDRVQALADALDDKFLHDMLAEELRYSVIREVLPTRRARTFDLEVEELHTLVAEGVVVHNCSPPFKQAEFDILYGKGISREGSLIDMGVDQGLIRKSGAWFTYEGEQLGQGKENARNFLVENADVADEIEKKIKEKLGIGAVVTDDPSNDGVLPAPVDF
test-protocol: Fluorescence Cell-Free Homogeneous Dose Retest to Identify Inhibitors of RecA-Intein Splicing Activity. [Related pubchem assays (depositor defined):AID2097, AID2223, AID489010, AID492950]
Assay type: functional
Activity calls are given as the source filed them. Rule as the data show it: actives have a measured EC50 and inactives only a lower limit.
property: EC50

Known EC50 results, listed for orientation:
mol: O=C(NCc1ccco1)/C(=C/c1cccc(C(F)(F)F)c1)c1nc2ccccc2[nH]1
target-or-test-system: Protein RecA (Mycobacterium tuberculosis)
EC50: 54.4 µM (active)

mol: O=C(CCl)N1CCN(S(=O)(=O)c2ccc3ccccc3c2)CC1
target-or-test-system: Protein RecA (Mycobacterium tuberculosis)
EC50: 1.58 µM (active)

mol: O=C(NCC1(c2ccccc2)CCCC1)C1(c2ccccc2)CCCC1
target-or-test-system: Protein RecA (Mycobacterium tuberculosis)
EC50: 53.3 µM (active)

mol: O=C1C(Cl)=C(N2CCC(C(=O)O)CC2)C(=O)c2ccccc21
target-or-test-system: Protein RecA (Mycobacterium tuberculosis)
EC50: 5.78 µM (active)

mol: CC(=O)C1=C(c2ccc(Br)cc2)C(=O)c2ccccc2C1=O
target-or-test-system: Protein RecA (Mycobacterium tuberculosis)
EC50: 1.94 µM (active)

API: the following record is the query input.
Q) // returns reported EC50 for input "COC1=C(c2ccccc2)C(=O)c2ccccc2C1=O"
A) 13.3 µM (active)
